target.of.assay: T1, HTRA4, P83105
T1 sequence (P83105 378-476, limits assumed, looked up): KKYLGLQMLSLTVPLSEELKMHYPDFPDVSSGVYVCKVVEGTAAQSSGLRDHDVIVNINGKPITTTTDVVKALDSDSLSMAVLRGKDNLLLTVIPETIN
assay.explanation: holdup assay
Parameters: key: below the threshold = too weak to quantify, mostly under pKd 3.1 to 4
condition.info: plain residues with an end cap or a label only (N-terminal biotin on a linker: ttds)
reported.metric: pKd

Some solved cases for reference:
- RLPKIKETTV [FRMPD4, Q14CM0]: below the threshold
- FHPLGADSQV [SLC2A1, P11166]: below the threshold
- QRQARSETLV [HPV59-E6, Q81964]: 3.78
- RLQRRRETQV [HPV18-E6, P06463]: below the threshold
- DKDPHSETAL [TMIGD1, Q6UXZ0]: below the threshold
- VDFPPKESSL [ACVR2A, P27037]: below the threshold
- RPLPRKVSQL [DOCK4, Q8N1I0]: below the threshold
- SSLQSLETSV [ATP2B4, P23634]: 3.6

Data point: PRVKPQRSKV [PPP1R13L, Q8WUF5] ; pKd = below the threshold

Data point: SKPTRRETEV [HPV35-E6, P27228] ; pKd = below the threshold

Data point: EMDRRPATVV [PLCB4, Q15147] ; pKd = 3.6

Data point: SGSRPSATVV [HPV73-E6, Q82005] ; pKd = 3.86

Data point: EVVHTPETSV [SLC16A3, O15427] ; pKd = below the threshold
